Every entry's value here was drawn from ChEMBL document CHEMBL4052595.

test system: RPMI-8226; assay: Growth inhibition of human RPMI8226 cells at 10^-5 M incubated for 48 hrs by sulforhodamine B assay; assay type: functional, cell-based
Activity calls are given as the source filed them. The calls are words filed in the database; no cut-off is given here.

compound	test_target	growth inhibition (GI)
COC(=O)C[C@H]1[C@@]2(C)C[C@@]34O[C@@]5(C)O[C@]6([C@@H]7CC(=O)O[C@@H](c8ccoc8)[C@]7(C)CC[C@]6(O5)[C@@]13C)[C@@H](OC(C)=O)[C@@]4(OC(C)=O)[C@H]2OC(C)=O	RPMI-8226	inactive
CC[C@H](C)C(=O)O[C@@H]1[C@H]2C(=O)[C@](C)([C@H]3CC[C@@]4(C)[C@H](c5ccoc5)OC(=O)C[C@]45O[C@]35[C@@H]2OC(=O)C(C)C)[C@@H](CC(=O)OC)C1(C)C	RPMI-8226	inactive
CC[C@H](C)C(=O)O[C@@H]1[C@@H]2[C@@H](OC(=O)[C@@H](C)CC)[C@@]34O[C@]2(O)[C@@](C)([C@@H](CC(=O)OC)C1(C)C)[C@H]3CC[C@]1(C)C4=CC(=O)O[C@H]1C1=CC(O)OC1=O (stereo partly drawn)	RPMI-8226	inactive

* * *

system: NCI-H23; test: Growth inhibition of human NCI-H23 cells at 10^-5 M incubated for 48 hrs by sulforhodamine B assay; assay type: functional, cell-based
Activity calls are given as the source filed them. The calls are words filed in the database; no cut-off is given here.

molecule	growth inhibition (GI)
COC(=O)C[C@H]1[C@@]2(C)C[C@@]34O[C@@]5(C)O[C@]6([C@@H]7CC(=O)O[C@@H](c8ccoc8)[C@]7(C)CC[C@]6(O5)[C@@]13C)[C@@H](OC(C)=O)[C@@]4(OC(C)=O)[C@H]2OC(C)=O	inactive
CC[C@H](C)C(=O)O[C@@H]1[C@H]2[C@@H](OC(=O)C(C)C)C(C)(C)[C@H](CC(=O)OC)[C@@]3(C)[C@H]4CC[C@]5(C)C(=CC(=O)O[C@H]5C5=CC(O)OC5=O)[C@@]14O[C@@]23O (stereo partly drawn)	inactive
CC[C@H](C)C(=O)O[C@@H]1[C@H]2C(=O)[C@](C)([C@H]3CC[C@@]4(C)[C@H](c5ccoc5)OC(=O)C[C@]45O[C@]35[C@@H]2OC(=O)C(C)C)[C@@H](CC(=O)OC)C1(C)C	inactive

* * *

tested on: SF-539; experiment: Growth inhibition of human SF539 cells at 10^-5 M incubated for 48 hrs by sulforhodamine B assay; format: functional, cell-based
Activity calls are given as the source filed them. The calls are words filed in the database; no cut-off is given here.

molecule	growth inhibition (GI)
CC[C@H](C)C(=O)O[C@@H]1[C@@H]2[C@@H](OC(=O)[C@@H](C)CC)[C@@]34O[C@]2(O)[C@@](C)([C@@H](CC(=O)OC)C1(C)C)[C@H]3CC[C@]1(C)C4=CC(=O)O[C@H]1C1=CC(O)OC1=O (some centres undefined)	inactive
CC[C@H](C)C(=O)O[C@@H]1[C@H]2C(=O)[C@](C)([C@H]3CC[C@@]4(C)[C@H](c5ccoc5)OC(=O)C[C@]45O[C@]35[C@@H]2OC(=O)C(C)C)[C@@H](CC(=O)OC)C1(C)C	inactive
CC[C@H](C)C(=O)O[C@@H]1[C@H]2[C@@H](OC(=O)C(C)C)C(C)(C)[C@H](CC(=O)OC)[C@@]3(C)[C@H]4CC[C@]5(C)C(=CC(=O)O[C@H]5C5=CC(O)OC5=O)[C@@]14O[C@@]23O (some centres undefined)	inactive
COC(=O)C[C@H]1[C@@]2(C)C[C@@]34O[C@@]5(C)O[C@]6([C@@H]7CC(=O)O[C@@H](c8ccoc8)[C@]7(C)CC[C@]6(O5)[C@@]13C)[C@@H](OC(C)=O)[C@@]4(OC(C)=O)[C@H]2OC(C)=O	inactive
